system: T1, rGyr_hel (reverse gyrase helicase-like domain) (Thermotoga maritima, UniProt O51934 59-541)
T1 sequence: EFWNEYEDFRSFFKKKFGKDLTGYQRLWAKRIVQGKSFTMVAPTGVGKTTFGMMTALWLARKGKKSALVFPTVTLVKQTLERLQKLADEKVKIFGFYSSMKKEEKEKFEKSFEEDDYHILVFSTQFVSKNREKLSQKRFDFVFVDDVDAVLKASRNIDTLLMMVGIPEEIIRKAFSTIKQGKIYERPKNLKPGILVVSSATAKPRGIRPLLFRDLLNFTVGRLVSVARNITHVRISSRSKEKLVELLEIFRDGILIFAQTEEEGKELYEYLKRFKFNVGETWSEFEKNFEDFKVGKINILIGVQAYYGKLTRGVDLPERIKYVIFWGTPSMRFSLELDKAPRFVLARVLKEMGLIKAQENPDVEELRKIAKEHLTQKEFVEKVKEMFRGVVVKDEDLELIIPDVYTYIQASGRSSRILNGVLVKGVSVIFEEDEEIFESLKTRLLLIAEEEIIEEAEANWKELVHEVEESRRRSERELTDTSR
procedure_details: fluorescence anisotropy
observation_type: Kd (nM)
Report as a plain number; the unit nM is understood.

Look up Kd for this binder: 60-base ssDNA (ssDNA) DNA: AAGCCAAGCTTCTAGAGTCAGCCCGTGATATTCATTACTTCTTATCCTAGGATCCCCGTT 2900
